Assay: Half life in simulated intestinal fluid at 20 uM by LC-MS/MS analysis
Format: ADME
half-life at 20 µM by entry:

Chemical String	half-life at 20 µM
CC(=O)N[C@H](C(=O)N[C@@H](CCC(N)=O)C(=O)N[C@H](C(=O)N[C@@H](Cc1c[nH]c2ccccc12)C(=O)N[C@@H](CCC(N)=O)C(=O)N[C@H](C(=O)N[C@@H](Cc1ccc(O)cc1)C(=O)N[C@@H](Cc1cccc2ccccc12)C(=O)N[C@@](C)(CCCN)C(=O)N[C@@H](CCC(=O)O)C(=O)N[C@@H](CC(N)=O)C(=O)NCC(N)=O)C(C)(C)S)[C@@H](C)O)C(C)(C)S	3 to 6 h
CC(=O)NCCCC[C@H](NC(=O)C(C)(C)NC(=O)[C@H](Cc1ccc2ccccc2c1)NC(=O)[C@H](Cc1ccc(OCCN)cc1)NC(=O)[C@@H](NC(=O)[C@H](CCC(N)=O)NC(=O)[C@H](Cc1c[nH]c2ccccc12)NC(=O)[C@@H](NC(=O)[C@H](CC(N)=O)NC(=O)[C@@H](NC(C)=O)C(C)(C)S)[C@@H](C)O)C(C)(C)S)C(=O)N[C@@H](CC(N)=O)C(=O)N[C@@H](CC(N)=O)C(N)=O	> 6 h
COc1ccc(C[C@H](NC(=O)[C@@H](NC(=O)[C@H](CCC(N)=O)NC(=O)[C@H](Cc2c[nH]c3ccccc23)NC(=O)[C@@H](NC(=O)[C@H](CC(N)=O)NC(=O)[C@@H](NC(C)=O)C(C)(C)S)[C@@H](C)O)C(C)(C)S)C(=O)N[C@@H](Cc2ccc3ccccc3c2)C(=O)NC(C)(C)C(=O)N[C@@H](CCC(=O)O)C(=O)N[C@@H](CC(N)=O)C(=O)N[C@@H](CC(N)=O)C(N)=O)cc1	2 to 3 h
COc1ccc(C[C@H](NC(=O)[C@@H](NC(=O)[C@H](CCC(N)=O)NC(=O)[C@H](Cc2c[nH]c3ccccc23)NC(=O)[C@@H](NC(=O)[C@H](CCC(N)=O)NC(=O)[C@@H](NC(C)=O)C(C)(C)S)[C@@H](C)O)C(C)(C)S)C(=O)N[C@@H](Cc2ccc3ccccc3c2)C(=O)NC(C)(C)C(=O)N[C@@H](CCCCNC(C)=O)C(=O)N[C@@H](CC(N)=O)C(=O)N[C@@H](CC(N)=O)C(N)=O)cc1	3 to 6 h

The record that follows has no half-life at 20 µM shown yet.
Value of measured half-life at 20 µM for the entry CC(=O)N[C@@H](CS)C(=O)N[C@@H](CCC(N)=O)C(=O)N[C@H](C(=O)N[C@@H](Cc1c[nH]c2ccccc12)C(=O)N[C@@H](CCC(N)=O)C(=O)N[C@H](C(=O)N[C@@H](Cc1ccc(O)cc1)C(=O)N[C@@H](Cc1c[nH]c2ccccc12)C(=O)N[C@H](CC(N)=O)C(=O)N[C@@H](CCC(=O)O)C(=O)N[C@@H](CC(N)=O)C(=O)NCC(N)=O)C(C)(C)S)[C@@H](C)O : < 1 h

---

Target: Interleukin-23 receptor (Homo sapiens)
Assay: Inhibition of interleukin-23 binding to human interleukin-23 receptor incubated for 2 hrs by competitive binding ELISA
Property: IC50

Chemical String	IC50
CC(=O)NCCCC[C@](C)(NC(=O)[C@H](Cc1ccc2ccccc2c1)NC(=O)[C@H](Cc1ccc(OCCNC(C)=O)cc1)NC(=O)[C@@H](NC(=O)[C@H](CCC(N)=O)NC(=O)[C@H](Cc1c[nH]c2ccccc12)NC(=O)[C@@H](NC(=O)[C@H](CCC(N)=O)NC(=O)[C@@H](NC(C)=O)C(C)(C)S)[C@@H](C)O)C(C)(C)S)C(=O)N[C@@H](CCC(=O)O)C(=O)N[C@@H](CC(N)=O)C(=O)NCC(N)=O	10 to 25 nM

// IC50 value for COc1ccc(CC[C@H](NC(=O)[C@@H]2CSCC[C@H](NC(C)=O)C(=O)N[C@@H](CCC(N)=O)C(=O)N[C@@H]([C@@H](C)O)C(=O)N[C@@H](Cc3c[nH]c4ccccc34)C(=O)N[C@@H](CCC(N)=O)C(=O)N2)C(=O)N[C@@H](Cc2ccc3ccccc3c2)C(=O)N[C@@](C)(CCCCN)C(=O)N[C@@H](CCCCNC(C)=O)C(=O)N[C@@H](CC(N)=O)C(=O)NCC(N)=O)cc1OC : > 1000 nM

The reported IC50 of the compound CC(=O)N[C@@H](CS)C(=O)N[C@@H](C)C(=O)N[C@@H](CC(=O)O)C(=O)N[C@@H](Cc1c[nH]c2ccccc12)C(=O)N[C@@H](CCC(=O)O)C(=O)N[C@@H](CS)C(=O)N[C@@H](Cc1ccc(O)cc1)C(=O)N[C@@H](Cc1c[nH]c2ccccc12)C(=O)N[C@@H](Cc1cnc[nH]1)C(=O)N[C@H](C(=O)N[C@@H](Cc1ccccc1)C(=O)NCC(N)=O)[C@@H](C)O was > 1000 nM

---

Biological target: Interleukin-23 receptor (Homo sapiens)
Sequence (Q5VWK5 whole entry): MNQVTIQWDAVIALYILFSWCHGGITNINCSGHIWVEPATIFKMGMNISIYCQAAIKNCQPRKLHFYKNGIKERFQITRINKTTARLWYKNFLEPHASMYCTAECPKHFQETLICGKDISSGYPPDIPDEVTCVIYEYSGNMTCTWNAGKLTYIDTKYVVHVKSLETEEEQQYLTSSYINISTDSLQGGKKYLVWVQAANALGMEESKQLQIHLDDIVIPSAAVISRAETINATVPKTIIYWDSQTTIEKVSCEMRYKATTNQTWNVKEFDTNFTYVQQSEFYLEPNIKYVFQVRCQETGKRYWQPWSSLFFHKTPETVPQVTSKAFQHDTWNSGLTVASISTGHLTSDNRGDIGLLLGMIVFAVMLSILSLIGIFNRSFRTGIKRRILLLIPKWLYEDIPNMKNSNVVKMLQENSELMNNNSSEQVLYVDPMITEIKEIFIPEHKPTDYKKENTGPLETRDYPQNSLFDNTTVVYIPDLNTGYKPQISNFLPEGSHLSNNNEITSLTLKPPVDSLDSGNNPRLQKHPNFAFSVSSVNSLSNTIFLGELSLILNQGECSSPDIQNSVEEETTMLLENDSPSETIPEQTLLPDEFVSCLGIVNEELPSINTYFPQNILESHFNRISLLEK
Test: Inhibition of interleukin-23 binding to human interleukin-23 receptor incubated for 2 hrs by competitive binding ELISA
*1 amine or outer side, *2 acyl side, *3 side chain or, on linkers, in order; H or OH if unused. Where a SMILES comes first, the peptide text is derived from it. Bridges are numbered along the chain shown (N, C = ends). [ ]: non-standard residue; d: D form. Abu(4-yl) = O=C([C@H](CC[*:3])N[*:1])[*:2]; 2Nal = N[C@@H](Cc1ccc2ccccc2c1)C(=O)O; AEF = NCCOc1ccc(C[C@H](N)C(=O)O)cc1; αMeK = C[C@](N)(CCCCN)C(=O)O
Property: IC50

For CC(=O)N[C@@H](CS)C(=O)N[C@@H](C)C(=O)N[C@@H](CC(=O)O)C(=O)N[C@@H](Cc1c[nH]c2ccccc12)C(=O)N[C@H](C(=O)N[C@@H](CS)C(=O)N[C@@H](Cc1ccc(O)cc1)C(=O)N[C@@](C)(Cc1ccc(F)cc1)C(=O)N[C@@H](CCCN)C(=O)N[C@@H](CN)C(=O)N[C@@H](Cc1ccccc1)C(=O)NCC(=O)NCCOCC(=O)N[C@H](CCCCN)C(N)=O)C(C)C the compound record lists IC50 as > 30 µM

IC50 reading for CC(=O)N[C@@H](CS)C(=O)N[C@@H](C)C(=O)N[C@@H](CC(=O)O)C(=O)N[C@@H](Cc1c[nH]c2ccccc12)C(=O)N[C@H](C(=O)N[C@@H](CS)C(=O)N[C@@H](Cc1ccc(O)cc1)C(=O)N[C@@H](Cc1c[nH]c2ccccc12)C(=O)N[C@@H](Cc1cnc[nH]1)C(=O)N[C@H](C(=O)N[C@@H](Cc1ccccc1)C(=O)NCC(=O)NCCOCCC(=O)N[C@@H](CCCCN)C(=O)O)[C@@H](C)O)C(C)C : < 0.5 µM

Field IC50 (entry CCCCCCCC[C@H](NC(=O)[C@H](Cc1ccc(OC)cc1)NC(=O)[C@@H]1CSCC[C@H](NC(C)=O)C(=O)N[C@@H](CCC(N)=O)C(=O)N[C@@H]([C@@H](C)O)C(=O)N[C@@H](Cc2c[nH]c3ccccc23)C(=O)N[C@@H](CCC(N)=O)C(=O)N1)C(=O)N[C@@](C)(CCCCN)C(=O)N[C@@H](CCCCNC(C)=O)C(=O)N[C@@H](CC(N)=O)C(=O)NCC(N)=O ) reads 10 µM

The compound listed as CC(=O)N[C@@H](CC(C)C)C(=O)N[C@H]1CCSC[C@@H](C(=O)N[C@@H](Cc2ccc(OCCN)cc2)C(=O)N[C@@H](Cc2ccc3ccccc3c2)C(=O)N[C@@](C)(CCCCN)C(=O)N[C@@H](CCC(=O)O)C(=O)N[C@@H](CC(N)=O)C(=O)N[C@@H](CC(N)=O)C(N)=O)NC(=O)[C@H](CCC(N)=O)NC(=O)[C@H](Cc2c[nH]c3ccccc23)NC(=O)[C@H]([C@@H](C)O)NC(=O)[C@H](CCC(N)=O)NC1=O (Ac-L[Abu(4-yl)]QTWQC[AEF][2Nal][αMeK]ENN-NH2; thioether 2-7) shows IC50 equal to < 0.01 µM

Looking up CC(=O)N[C@@H](CS)C(=O)N[C@@H](C)C(=O)N[C@@H](CC(=O)O)C(=O)N[C@@H](Cc1c[nH]c2ccccc12)C(=O)N[C@H](C(=O)N[C@@H](CS)C(=O)N[C@@H](Cc1ccc(O)cc1)C(=O)N[C@@H](Cc1cccc2ccccc12)C(=O)N[C@@H](Cc1cnc[nH]1)C(=O)NCCC(=O)N[C@@H](Cc1ccccc1)C(=O)NCC(N)=O)C(C)C , I see its IC50 listed as > 1 µM

Recorded values, source ChEMBL document CHEMBL4417631.
